Target: T1, macaca fascicularis (mf) PRLR.mmh (soluble monomeric monkey PRLR) (Macaca fascicularis)
T1 construct: called soluble monomeric PRLR protein
T1 chain: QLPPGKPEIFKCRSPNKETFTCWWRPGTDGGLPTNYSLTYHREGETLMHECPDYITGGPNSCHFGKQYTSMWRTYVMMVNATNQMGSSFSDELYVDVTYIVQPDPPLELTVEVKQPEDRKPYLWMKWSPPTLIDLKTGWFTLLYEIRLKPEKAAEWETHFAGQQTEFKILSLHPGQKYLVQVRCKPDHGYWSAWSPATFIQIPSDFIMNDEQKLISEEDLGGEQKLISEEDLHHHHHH
Assay: SPR Biacore, 25 C, mAb capture
pKd: −log10 of the molar value.
Mark -1 for pKd values under 9, and 1 for everything at or above.

>  <binder>
H1H6804P (antibody, human IgG1, V domains shown, Human IgG1 Fc (H1H)) VH: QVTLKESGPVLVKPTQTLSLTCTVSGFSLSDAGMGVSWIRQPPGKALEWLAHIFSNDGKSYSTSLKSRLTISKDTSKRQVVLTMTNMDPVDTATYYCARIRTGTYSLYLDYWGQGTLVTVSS VL: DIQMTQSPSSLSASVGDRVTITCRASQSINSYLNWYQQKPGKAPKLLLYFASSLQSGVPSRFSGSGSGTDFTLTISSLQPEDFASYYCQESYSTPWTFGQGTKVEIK

>  <assigned-category>
-1

$$$$
>  <binder>
H1H6953N (antibody, human IgG1, V domains shown, Tested with human IgG1 Fc (H1H); also called H1M6953N) VH: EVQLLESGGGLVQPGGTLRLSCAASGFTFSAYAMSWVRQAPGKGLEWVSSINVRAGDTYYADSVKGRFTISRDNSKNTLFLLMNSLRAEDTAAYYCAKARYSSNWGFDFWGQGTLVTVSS VL: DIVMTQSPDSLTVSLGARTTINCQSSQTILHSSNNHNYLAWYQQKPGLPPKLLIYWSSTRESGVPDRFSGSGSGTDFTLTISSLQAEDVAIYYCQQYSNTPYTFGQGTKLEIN

>  <assigned-category>
1

$$$$
>  <binder>
H1H6966N (antibody, human IgG1, V domains shown, Tested with human IgG1 Fc (H1H); also called H2M6966N) VH: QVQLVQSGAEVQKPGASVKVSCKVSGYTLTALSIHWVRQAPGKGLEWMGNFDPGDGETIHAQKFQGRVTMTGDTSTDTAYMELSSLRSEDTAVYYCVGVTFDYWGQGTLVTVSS VL: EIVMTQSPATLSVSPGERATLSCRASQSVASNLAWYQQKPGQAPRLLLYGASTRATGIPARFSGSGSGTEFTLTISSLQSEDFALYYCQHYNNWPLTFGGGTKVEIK

>  <assigned-category>
1

$$$$
>  <binder>
H1H6793P (antibody, human IgG1, V domains shown, Human IgG1 Fc (H1H)) VH: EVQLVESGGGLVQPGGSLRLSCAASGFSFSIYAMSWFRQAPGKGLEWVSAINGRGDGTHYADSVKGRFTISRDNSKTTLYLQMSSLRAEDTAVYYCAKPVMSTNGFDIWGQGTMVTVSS VL: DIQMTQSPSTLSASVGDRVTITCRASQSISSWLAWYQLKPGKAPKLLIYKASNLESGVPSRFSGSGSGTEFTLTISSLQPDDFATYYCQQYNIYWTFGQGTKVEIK

>  <assigned-category>
-1

$$$$
>  <binder>
H1H6792P (antibody, human IgG1, V domains shown, Human IgG1 Fc (H1H)) VH: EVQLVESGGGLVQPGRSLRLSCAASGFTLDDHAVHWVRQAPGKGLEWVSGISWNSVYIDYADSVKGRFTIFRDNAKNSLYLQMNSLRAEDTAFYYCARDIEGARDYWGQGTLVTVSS VL: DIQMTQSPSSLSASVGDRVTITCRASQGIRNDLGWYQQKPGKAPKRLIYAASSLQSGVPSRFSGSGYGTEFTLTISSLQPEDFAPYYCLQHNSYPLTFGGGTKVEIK

>  <assigned-category>
-1

$$$$
>  <binder>
H1H6967N (antibody, human IgG1, V domains shown, Tested with human IgG1 Fc (H1H); also called H2M6967N) VH: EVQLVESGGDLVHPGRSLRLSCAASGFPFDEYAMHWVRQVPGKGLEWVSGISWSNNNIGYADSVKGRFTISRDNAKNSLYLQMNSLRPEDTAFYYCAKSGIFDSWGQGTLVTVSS VL: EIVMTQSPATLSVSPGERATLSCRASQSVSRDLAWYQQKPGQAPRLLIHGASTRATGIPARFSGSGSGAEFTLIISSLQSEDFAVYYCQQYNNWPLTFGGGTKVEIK

>  <assigned-category>
-1

$$$$
